# Tested on: wheat germ agglutinin (Triticum aestivum), Alexa647-labelled
# assay-comment: wheat germ agglutinin binders on compound microarrays, profiling panel, artefact control for SMM control-protein annotation, biochemical, small-molecule microarray, 635/667 nm fluorescence (AID 1140);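 note: score merges 667 nm feature emission with signal to noise over triplicate slides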
# protocol-conditions: WGA-A647 binding, 635 nm fluorescence, higher = more signal
composite z-score of -0.2 or higher: T. Under -0.2: F.

# count of solved cases: 6
molecule	label
COCCOC(=O)N1C(=O)[C@@]2(c3cc(C#Cc4ccc(OC)cc4)ccc31)[C@H](C(=O)N1CCN(c3ncccn3)CC1)[C@H]1C(=O)O[C@H](c3ccccc3)[C@H](c3ccccc3)N1[C@@H]2c1ccccc1OCCO	T
CC(C)C(CO)N1C(=O)[C@]2(C)C3C(=O)OCCC/C=C\[C@H]3OC23C=CCN(c2ccc(Cl)cc2)C(=O)[C@@H]13 (some centres not stated)	F
CCC[C@@H]1C[C@@]1(CCC)[C@@H](NP(=O)(c1ccccc1)c1ccccc1)c1ccc(Cl)cc1	F
CC(C)C(O)C1C=CC2C(=O)N(C)C(=O)C2N1Nc1ccccc1 (configuration not stated)	T
C=CCC(OC(C)=O)[C@@H]1[C@@H](N(Cc2cc3ccccc3o2)C(=O)c2ccc(C)cc2)c2cc(OCCCO)ccc2N1C(=O)Cc1ccc2ccccc2c1 (some centres not stated)	T
CCCC[C@@H]1C[C@H]1[C@@H](NC(=O)c1ccccc1)c1ccc(Cl)cc1	F

I'd appreciate it if you could say whether COc1ccccc1CN1C(=O)c2ccccc2[C@@H](C(=O)NC(C)C)[C@@H]1c1ccc(CO)cc1 has composite z-score at least equal to -0.2. T
